tested on: NCI-H226 complex tumor spheroids, viability; experiment: Anticancer human tumor NCI-H226 cell line growth inhibition; details: second compound 0.03 µM; first compound 0.316 µM; active compounds read low;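 also: spheroids exposed to compound for 7 days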
viability, T/C less than 80% is Met; viability, T/C greater than or equal to 80% is Not met.

Reference set (3 entries):
compound | category
CC1COCCN1c1cc(-c2ccnn2C)c2ccnc(-c3ccn[nH]3)c2n1 (stereo unspecified) + CC[C@@]1(O)C(=O)OCc2c1cc1n(c2=O)Cc2cc3c(CN(C)C)c(O)ccc3nc2-1 | Met
COc1ccc([C@@H](O)c2cc(-c3ncnc4cc(N5CCOCC5)ccc34)c(F)cc2Cl)nn1 + CC[C@@]1(O)C(=O)OCc2c1cc1n(c2=O)Cc2cc3c(CN(C)C)c(O)ccc3nc2-1 | Met
[2H]c1nc(C)nc([2H])c1-c1cc(NC[C@@H](C)c2cccc3c(C(=O)NC)ccnc23)ncn1 + CC[C@@]1(O)C(=O)OCc2c1cc1n(c2=O)Cc2cc3c(CN(C)C)c(O)ccc3nc2-1 | Not met

Prompt: Regarding CC(C)n1c(=O)n(C)c2cnc3cc(F)c(-c4ccc(OCCCN5CCCCC5)nc4)cc3c21 + CC[C@@]1(O)C(=O)OCc2c1cc1n(c2=O)Cc2cc3c(CN(C)C)c(O)ccc3nc2-1 , kindly confirm whether its viability, T/C is beneath 80%.
Completion: Not met

Prompt: Regarding Cc1cc(C)c(CNC(=O)c2cc(-c3ccc(CN4CCOCC4)cc3)cc3c2cnn3C2CCCC2)c(=O)[nH]1 + CC[C@@]1(O)C(=O)OCc2c1cc1n(c2=O)Cc2cc3c(CN(C)C)c(O)ccc3nc2-1 , kindly confirm whether its viability, T/C is beneath 80%.
Completion: Not met
